- assay system: JAK3 (Homo sapiens, UniProt P52333)
- Sequence (P52333 whole entry, species assumed): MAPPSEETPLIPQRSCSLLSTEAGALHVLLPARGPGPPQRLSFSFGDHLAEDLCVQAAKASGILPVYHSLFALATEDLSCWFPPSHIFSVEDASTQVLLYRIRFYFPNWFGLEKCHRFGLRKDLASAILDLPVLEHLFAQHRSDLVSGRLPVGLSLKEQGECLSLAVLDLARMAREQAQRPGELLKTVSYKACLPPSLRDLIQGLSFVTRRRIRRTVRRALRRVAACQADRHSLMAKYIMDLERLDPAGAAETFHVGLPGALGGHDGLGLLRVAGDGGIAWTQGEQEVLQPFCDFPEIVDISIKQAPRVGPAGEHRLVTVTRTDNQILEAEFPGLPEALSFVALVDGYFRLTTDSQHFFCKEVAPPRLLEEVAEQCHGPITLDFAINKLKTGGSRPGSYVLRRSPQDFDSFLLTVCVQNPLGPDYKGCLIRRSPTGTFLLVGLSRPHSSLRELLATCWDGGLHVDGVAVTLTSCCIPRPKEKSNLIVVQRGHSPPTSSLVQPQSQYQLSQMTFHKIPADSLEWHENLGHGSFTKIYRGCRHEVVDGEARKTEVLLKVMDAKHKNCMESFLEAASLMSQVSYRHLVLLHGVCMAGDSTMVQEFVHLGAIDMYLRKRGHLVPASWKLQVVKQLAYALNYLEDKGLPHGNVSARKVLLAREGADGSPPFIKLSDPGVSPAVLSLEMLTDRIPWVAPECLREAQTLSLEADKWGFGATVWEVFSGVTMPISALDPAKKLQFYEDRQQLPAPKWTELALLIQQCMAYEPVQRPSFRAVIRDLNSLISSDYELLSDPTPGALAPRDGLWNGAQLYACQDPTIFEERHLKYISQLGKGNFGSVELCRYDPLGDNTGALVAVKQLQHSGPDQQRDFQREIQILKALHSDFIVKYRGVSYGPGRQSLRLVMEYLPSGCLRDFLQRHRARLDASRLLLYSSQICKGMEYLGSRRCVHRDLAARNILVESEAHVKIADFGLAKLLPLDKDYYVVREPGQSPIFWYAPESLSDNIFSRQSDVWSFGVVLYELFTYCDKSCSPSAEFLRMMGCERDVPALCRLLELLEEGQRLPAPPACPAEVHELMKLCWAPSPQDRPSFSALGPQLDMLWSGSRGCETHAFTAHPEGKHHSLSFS
- protocol notes: JAK 3 enzymatic inhibitory activity IC50 assay (Caliper conversion rate)
- Type: biochemical
- run conditions: Km ATP, 28° C., 1 hour; read-out: JAK 3 enzymatic inhibitory activity IC50
- Experimental: Biological effect: intracytoplasmic JAK 1,2,3 enzymatic inhibitory activity IC50 assay JAK1 buffer solution: 25 mM HEPES, pH 7.5, 0.01% Brij-35, 0.01 M Triton. JAK2,3 buffer solution: 50 mM HEPES, pH 7.5, 0.0015% Brij-35. 2. Compound was formulated in 100% DMSO in a concentration gradient, deposited to a 384-well plate with a final concentration of 2% of DMSO. 3. […] 5. Read the conversion rate by Caliper Reader, and the inhibition rate are calculated according to the average of two tests.
pIC50: −log10 of the molar value.
assay readout: pIC50

# compound, assay system, value
rows = [
    ("N#CCC(C1CCCC1)n1cc(-c2nc(Nc3cncnc3)nc3ccsc23)cn1 (stereo not drawn)", "JAK3 (Homo sapiens, UniProt P52333)", "< 6.00"),
    ("CCS(=O)(=O)N1CC(CC#N)(n2cc(-c3nc(Nc4cnn(CCC#N)c4)nc4ccsc34)cn2)C1", "JAK3 (Homo sapiens, UniProt P52333)", "> 7.30"),
    ("CCS(=O)(=O)N1CC(CC#N)(n2cc(-c3nc(Nc4cnn(CC(F)(F)F)c4)nc4ccsc34)cn2)C1", "JAK3 (Homo sapiens, UniProt P52333)", "6.30 to 7.30"),
    ("Cn1cc(Nc2nc(-c3cnn(C4(CC#N)CC(F)C4)c3)c3sccc3n2)cn1 (stereo not drawn)", "JAK3 (Homo sapiens, UniProt P52333)", "6.30 to 7.30"),
    ("Cn1cc(Nc2nc(-c3cnn(C4(CC#N)CC4)c3)c3sccc3n2)cn1", "JAK3 (Homo sapiens, UniProt P52333)", "6.30 to 7.30"),
    ("CCCCOC(=O)CCn1cc(Nc2nc(-c3cnn(C4(CC#N)CN(S(=O)(=O)CC)C4)c3)c3sccc3n2)cn1", "JAK3 (Homo sapiens, UniProt P52333)", "6.30 to 7.30"),
    ("CCS(=O)(=O)N1CC(CC#N)(n2cc(-c3nc(Nc4cnn(C(C)C)c4)nc4ccsc34)cn2)C1", "JAK3 (Homo sapiens, UniProt P52333)", "> 7.30"),
    ("C[C@H](CO)n1cc(Nc2nc(-c3cnn(C4(CC#N)COC4)c3)c3sccc3n2)cn1", "JAK3 (Homo sapiens, UniProt P52333)", "6.30 to 7.30"),
    ("CCS(=O)(=O)N1CC(CC#N)(n2cc(-c3nc(Nc4cnn(CCCC(=O)N(C)C)c4)nc4ccsc34)cn2)C1", "JAK3 (Homo sapiens, UniProt P52333)", "> 7.30"),
    ("CCS(=O)(=O)N1CC(CC#N)(n2cc(-c3nc(Nc4ccc(N5CCOCC5)nc4)nc4ccsc34)cn2)C1", "JAK3 (Homo sapiens, UniProt P52333)", "6.30 to 7.30"),
    ("CCS(=O)(=O)N1CC(CC#N)(n2cc(-c3nc(Nc4cncnc4)nc4ccsc34)cn2)C1", "JAK3 (Homo sapiens, UniProt P52333)", "< 6.00"),
    ("CCS(=O)(=O)N1CC(CC#N)(n2cc(-c3nc(Nc4cnn(CC(=O)O)c4)nc4ccsc34)cn2)C1", "JAK3 (Homo sapiens, UniProt P52333)", "6.30 to 7.30"),
    ("CCS(=O)(=O)N1CC(CC#N)(n2cc(-c3nc(Nc4cnn(C)c4)nc4cc(Cl)sc34)cn2)C1", "JAK3 (Homo sapiens, UniProt P52333)", "< 6.00"),
    ("CCS(=O)(=O)N1CC(CC#N)(n2cc(-c3nc(Nc4ccccc4)nc4ccsc34)cn2)C1", "JAK3 (Homo sapiens, UniProt P52333)", "6.30 to 7.30"),
    ("CCS(=O)(=O)N1CC(CC#N)(n2cc(-c3nc(Nc4cnn(C(=O)COC)c4)nc4ccsc34)cn2)C1", "JAK3 (Homo sapiens, UniProt P52333)", "> 7.30"),
]
